A compilation of pIC50 values for Cytochrome P450 2D6 (Homo sapiens, UniProt P10635) from the published literature.
pIC50: −log10 of the molar value.

For the record CC1(c2ccc(Cl)cc2F)Oc2cccc(C3CCN(Cc4nc5sc(C(=O)O)c(F)c5n4C[C@@H]4CCO4)CC3)c2O1 (single isomer, unassigned) , what value of pIC50 is listed for Cytochrome P450 2D6 (Homo sapiens, UniProt P10635)?
< 4.30

For the record CC(C)Oc1ccc(S(=O)(=O)N2C[C@@H](C)[C@@H](n3nc(CC(=O)O)c4ccc(F)cc43)C2)c(F)c1 , what value of pIC50 is listed for Cytochrome P450 2D6 (Homo sapiens, UniProt P10635)?
< 4.70

For the record CO[C@H]1[C@@H](CF)OC(N)=N[C@]1(C)c1cc(NC(=O)c2ccc(F)cn2)ccc1F , what value of pIC50 is listed for Cytochrome P450 2D6 (Homo sapiens, UniProt P10635)?
≤ 4.70
